These entries and their values trace back to patent US10336762B2.

- studySystem: IRAK4 enzyme (Homo sapiens (Human))
- Sequence (Q9NWZ3 whole entry): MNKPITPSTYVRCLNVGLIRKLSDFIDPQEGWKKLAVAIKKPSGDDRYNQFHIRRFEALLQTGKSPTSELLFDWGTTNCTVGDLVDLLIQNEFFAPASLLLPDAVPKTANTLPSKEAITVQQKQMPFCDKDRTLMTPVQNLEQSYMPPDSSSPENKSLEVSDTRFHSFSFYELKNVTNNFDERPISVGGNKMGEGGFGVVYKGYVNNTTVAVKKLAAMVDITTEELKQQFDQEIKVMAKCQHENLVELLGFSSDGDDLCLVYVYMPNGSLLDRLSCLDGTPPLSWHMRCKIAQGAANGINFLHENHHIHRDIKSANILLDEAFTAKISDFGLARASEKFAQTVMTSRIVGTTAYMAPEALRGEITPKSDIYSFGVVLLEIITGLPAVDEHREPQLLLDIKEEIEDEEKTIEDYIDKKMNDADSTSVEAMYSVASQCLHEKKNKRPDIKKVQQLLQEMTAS
- assayOverview: biochemical
- Type: biochemical
- conditionsUsed: IRAK4 enzyme, TR-FRET, 500 μM ATP
measuredProperty: IC50

CC(C)(O)[C@H](F)CNC(=O)c1cnc(-c2ccc3cc(C#N)cnn23)cc1Nc1cnccn1    < 1 nM

Count: 2. Required value per item: IC50.
1. CC(C)(O)[C@H](F)CNC(=O)c1cnc(-c2ccc3cc(C#N)cnn23)cc1Nc1ccc2cnccc2n1
2. CC(C)(O)[C@H](F)CNC(=O)c1cnc(-c2ccc3cc(C#N)cnn23)cc1N[C@H]1[C@@H]2COC[C@@H]21

# output
< 1 nM
< 1 nM
